Examples of compounds with documented pEC50 follow.
tested.on: MOR beta-arrestin (Homo sapiens, UniProt P35372)
assay.protocol: MOR beta-arrestin agonist test (PathHunter, U2OS/OPRM1 cell line)
test.settings: Human Mu opioid β-arrestin U2OS/OPRM1 cell line; read-out: EC50 for activating beta-arrestin signaling pathway
Convention used: pEC50 is expressed as -log10 of the molar concentration.

Item: c1ccc(C2(CCNC3CCc4ccccc43)CCOC3(CCOCC3)C2)nc1 (stereo not drawn) | pEC50: 5.75

Item: Fc1ccc(C2(CCNC3Cc4cccc(Br)c4C3)CCOC3(CCOCC3)C2)nc1 (stereo not drawn) | pEC50: 5.32

Shift focus to the following entry.
Item: Fc1ccc(C2(CCNC3Cc4ccccc4C3)CCOC3(CCOCC3)C2)nc1 (stereo not drawn) | pEC50: 6.44

----------
tested.on: MOR (Homo sapiens, UniProt P35372)
Construct: expressed in transfected cells; host or cells: CHO-K1/OP3 (name from the earlier reading)
Sequence (P35372 whole entry): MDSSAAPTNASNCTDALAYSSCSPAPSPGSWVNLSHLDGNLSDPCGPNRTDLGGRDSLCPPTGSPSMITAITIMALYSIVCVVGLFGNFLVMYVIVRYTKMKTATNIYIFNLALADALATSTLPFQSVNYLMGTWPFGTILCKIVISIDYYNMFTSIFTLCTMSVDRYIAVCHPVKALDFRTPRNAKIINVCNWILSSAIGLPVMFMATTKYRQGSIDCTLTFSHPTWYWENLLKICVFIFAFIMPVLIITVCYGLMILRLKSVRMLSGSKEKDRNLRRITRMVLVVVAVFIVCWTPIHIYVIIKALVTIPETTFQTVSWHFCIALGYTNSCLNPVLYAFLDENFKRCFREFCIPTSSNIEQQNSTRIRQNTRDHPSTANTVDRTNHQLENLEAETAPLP
assay.protocol: Agonist test on MOR, cAMP level (CHO-K1/OP3 cells, cAMP assay kit)
Type: cell-based
test.settings: forskolin-stimulated cAMP, read-out: EC50 agonizing MOR receptor to affect cAMP level
Examples of compounds with documented EC50 follow.
State the answer as a number, implicitly in nM.

Solved entries (count: 3):
Item: Fc1ccc([C@]2(CCN[C@H]3Cc4cccc(Cl)c4C3)CCOC3(CCOCC3)C2)nc1 | EC50: 0.64

Item: Fc1ccc([C@]2(CCNC3Cc4ccccc4C3)CCOC3(CCOCC3)C2)nc1 | EC50: 4.1

Item: c1ccc(C2(CCNC3CCc4ccccc43)CCOC3(CCOCC3)C2)nc1 (stereo not drawn) | EC50: 30.7

More entries:
Item: Fc1ccc([C@]2(CCNCc3cccc(Cl)c3Cl)CCOC3(CCOCC3)C2)nc1 | EC50: 18.7

Item: Clc1cccc2c1CCC2NCCC1(c2ccccn2)CCOC2(CCOCC2)C1 (stereo not drawn) | EC50: 2.4

Item: Fc1ccc(C2(CCN[C@H]3CCc4c(Br)cccc43)CCOC3(CCOCC3)C2)nc1 (stereo partly drawn) | EC50: 1.69

Item: Cc1c(Cl)cccc1CNCC[C@@]1(c2ccc(F)cn2)CCOC2(CCOCC2)C1 | EC50: 1.29

Item: Fc1ccc(C2(CCN[C@H]3CCc4c(F)cccc43)CCOC3(CCOCC3)C2)nc1 (stereo partly drawn) | EC50: 23.5

Item: Fc1ccc([C@]2(CCN[C@H]3Cc4cccc(Br)c4C3)CCOC3(CCOCC3)C2)nc1 | EC50: 0.8

----------
Examples of molecules with documented Emax follow.
tested.on: MOR beta-arrestin (Homo sapiens, UniProt P35372)
Construct: expressed in transfected cells; host or cells: MOR beta-arrestin cell strain (U2OS/OPRM1 PathHunter per the earlier reading), kept under Hygromycin B and G418 selection
assay.protocol: MOR beta-arrestin agonist test (PathHunter, U2OS/OPRM1 cell line)
Assay type: cell-based
test.settings: Human Mu opioid β-arrestin U2OS/OPRM1 cell line; maximal effect of DAMGO is 100%; read-out: Emax for activating beta-arrestin signaling pathway
State the answer as a number, implicitly in %.

Item: Cc1c(Cl)cccc1CNCCC1(c2ccc(F)cn2)CCOC2(CCOCC2)C1 (stereo not drawn) [Compound 12] | Emax: 6.3

Item: Fc1ccc([C@]2(CCNC3Cc4ccccc4C3)CCOC3(CCOCC3)C2)nc1 [Compound 8-1] | Emax: 3

Item: Fc1ccc(C2(CCNC3Cc4ccccc4C3)CCOC3(CCOCC3)C2)nc1 (stereo not drawn) [Compound 8] | Emax: 2.1

Item: Fc1ccc(C2(CCNC3Cc4cccc(Br)c4C3)CCOC3(CCOCC3)C2)nc1 (stereo not drawn) [Compound 10] | Emax: 4.5

Item: c1ccc(C2(CCNC3CCc4ccccc43)CCOC3(CCOCC3)C2)nc1 (stereo not drawn) [Compound 15] | Emax: 7.2

Shift focus to the following entry.
Item: Fc1ccc([C@]2(CCNCc3cccc(Cl)c3Cl)CCOC3(CCOCC3)C2)nc1 [Compound 13-1] | Emax: 4.2
